Data origin, for the record: ChEMBL document CHEMBL1177684

- system-tested: Receptor tyrosine-protein kinase erbB-2 (Homo sapiens, UniProt P04626)
- Sequence (P04626 whole entry): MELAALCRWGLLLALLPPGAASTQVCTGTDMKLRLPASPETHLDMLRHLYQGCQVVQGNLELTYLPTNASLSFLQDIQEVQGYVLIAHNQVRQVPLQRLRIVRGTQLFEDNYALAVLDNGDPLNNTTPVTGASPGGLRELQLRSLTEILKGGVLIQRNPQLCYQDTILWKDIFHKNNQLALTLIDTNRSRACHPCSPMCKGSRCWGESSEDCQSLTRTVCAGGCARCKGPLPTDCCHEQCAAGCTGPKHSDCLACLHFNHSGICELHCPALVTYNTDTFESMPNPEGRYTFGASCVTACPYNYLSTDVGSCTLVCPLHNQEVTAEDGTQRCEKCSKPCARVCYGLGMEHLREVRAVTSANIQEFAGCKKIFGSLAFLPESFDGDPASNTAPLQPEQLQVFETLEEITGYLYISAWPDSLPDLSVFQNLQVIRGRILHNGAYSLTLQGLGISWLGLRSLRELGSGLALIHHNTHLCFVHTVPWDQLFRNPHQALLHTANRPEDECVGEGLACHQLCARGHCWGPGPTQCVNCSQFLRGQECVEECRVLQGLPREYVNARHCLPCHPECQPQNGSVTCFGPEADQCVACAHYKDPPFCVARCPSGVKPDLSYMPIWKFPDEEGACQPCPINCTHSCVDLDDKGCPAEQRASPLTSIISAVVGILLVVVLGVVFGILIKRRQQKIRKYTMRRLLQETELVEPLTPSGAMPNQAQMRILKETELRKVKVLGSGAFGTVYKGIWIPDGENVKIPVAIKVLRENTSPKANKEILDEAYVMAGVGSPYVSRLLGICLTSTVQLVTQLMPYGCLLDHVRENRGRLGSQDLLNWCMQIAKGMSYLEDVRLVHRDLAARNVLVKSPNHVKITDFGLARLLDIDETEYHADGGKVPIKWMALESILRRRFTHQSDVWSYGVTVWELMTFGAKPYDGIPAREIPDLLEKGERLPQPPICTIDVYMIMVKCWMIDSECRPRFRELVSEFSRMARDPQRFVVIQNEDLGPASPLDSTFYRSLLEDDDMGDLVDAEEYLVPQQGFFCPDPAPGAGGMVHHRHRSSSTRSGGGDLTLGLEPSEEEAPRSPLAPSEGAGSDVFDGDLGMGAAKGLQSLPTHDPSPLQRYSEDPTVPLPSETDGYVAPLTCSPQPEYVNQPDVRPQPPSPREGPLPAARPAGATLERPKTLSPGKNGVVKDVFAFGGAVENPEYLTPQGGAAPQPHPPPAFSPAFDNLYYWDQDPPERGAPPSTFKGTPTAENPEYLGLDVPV
quantity-name: IC50 (µM)

{"substance-smiles": "Cc1ncc([N+](=O)[O-])n1CCOC(=O)/C=C/c1ccc(C(C)C)cc1", "IC50 / µM": 9.97}
{"substance-smiles": "Cc1ncc([N+](=O)[O-])n1CCOC(=O)/C=C/c1cccc2ccccc12", "IC50 / µM": 5.03}
{"substance-smiles": "Cc1ncc([N+](=O)[O-])n1CCOC(=O)/C=C/c1ccccc1Cl", "IC50 / µM": 36.5}
{"substance-smiles": "Cc1ncc([N+](=O)[O-])n1CCOC(=O)/C=C/c1ccc(OCc2ccccc2)cc1", "IC50 / µM": 3.46}
{"substance-smiles": "Cc1ncc([N+](=O)[O-])n1CCOC(=O)/C=C/c1ccccc1F", "IC50 / µM": 41.3}

P. Cc1ncc([N+](=O)[O-])n1CCOC(=O)/C=C/c1ccccc1[N+](=O)[O-]
Q. Cc1ncc([N+](=O)[O-])n1CCOC(=O)/C=C/c1ccc(Br)cc1
R. COc1ccc(/C=C/C(=O)OCCn2c([N+](=O)[O-])cnc2C)cc1
S. Cc1ccc(/C=C/C(=O)OCCn2c([N+](=O)[O-])cnc2C)cc1
Query: Put the entries in order of IC50, starting with the largest number. Please list the labels according to the requested order.
Result: P, R, S, Q
